# subject of test: DGKα (Homo sapiens (Human), UniProt P23743)
# Sequence (P23743 whole entry): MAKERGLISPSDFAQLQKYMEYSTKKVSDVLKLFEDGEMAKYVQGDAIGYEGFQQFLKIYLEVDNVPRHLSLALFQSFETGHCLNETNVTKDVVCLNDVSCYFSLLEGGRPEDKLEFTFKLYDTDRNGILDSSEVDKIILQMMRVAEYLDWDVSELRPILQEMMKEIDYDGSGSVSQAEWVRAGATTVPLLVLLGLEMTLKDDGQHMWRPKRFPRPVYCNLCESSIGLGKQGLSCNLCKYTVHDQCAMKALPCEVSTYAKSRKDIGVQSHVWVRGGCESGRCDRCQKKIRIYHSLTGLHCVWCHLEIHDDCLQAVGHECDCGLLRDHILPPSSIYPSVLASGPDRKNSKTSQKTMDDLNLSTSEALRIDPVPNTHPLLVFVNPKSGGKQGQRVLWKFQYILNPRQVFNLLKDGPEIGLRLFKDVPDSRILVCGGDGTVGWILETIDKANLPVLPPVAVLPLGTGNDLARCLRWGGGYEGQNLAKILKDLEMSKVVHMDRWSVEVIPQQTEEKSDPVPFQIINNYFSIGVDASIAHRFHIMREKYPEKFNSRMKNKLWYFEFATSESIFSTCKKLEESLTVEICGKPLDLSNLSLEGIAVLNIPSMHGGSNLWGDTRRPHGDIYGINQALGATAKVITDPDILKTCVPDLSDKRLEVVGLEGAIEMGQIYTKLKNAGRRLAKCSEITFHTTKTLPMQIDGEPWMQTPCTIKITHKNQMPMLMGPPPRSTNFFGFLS
pIC50: −log10 of the molar value.
observable: pIC50

                                   molecule  endpoint_value
0  CC[C@H]1CN(C(C)c2cn3ccccc3n2)[C@H](CC)CN1c1cc(=O)n(C)c2cn(CC#N)nc12 (stereo partly drawn) [Compound A388]            5.86
1  CC(c1ccc2ncc(CO)nc2c1)N1C[C@H](C)N(c2cc(=O)n(C)c3cn(CC#N)nc23)C[C@H]1C (stereo partly drawn) [Compound A309]            3.97
2  CC[C@H]1CN(C(C)c2ccc(C)c(C)c2)[C@H](CC)CN1c1cc(=O)n(C)c2cn(CC#N)nc12 (stereo partly drawn) [Compound A384]            5.76
3  Cc1ccc2ccc(C(C)N3C[C@H](C)N(c4cc(=O)n(C)c5cn(CC#N)nc45)C[C@H]3C)cc2n1 (stereo partly drawn) [Compound A306]            4.74
4  CC[C@H]1CN(C(C)c2ccc3c(n2)OCC3)[C@H](CC)CN1c1cc(=O)n(C)c2cn(CC#N)nc12 (stereo partly drawn) [Compound A337]            6.69

1 = CC[C@H]1CN(C(C)c2ccn3ncnc3c2)[C@H](CC)CN1c1cc(=O)n(C)c2cn(CC#N)nc12 (stereo partly drawn) [Compound A49]
2 = CC(c1ccc2c(c1)OC(C)(C)CO2)N1C[C@H](C)N(c2cc(=O)n(C)c3cn(CC#N)nc23)C[C@H]1C (single isomer, unassigned) [Compound A46f]
3 = CC(c1ccc2c(c1)OCCO2)N1C[C@H](C)N(c2cc(=O)n(C)c3cn(CC#N)nc23)C[C@H]1C (single isomer, unassigned) [Compound A43a]
4 = CC[C@@H]1CN(c2cc(=O)n(C)c3cn(CC(F)F)nc23)[C@@H](C)CN1C(C)c1ccc2nccnc2c1 (single isomer, unassigned) [Compound A222a]
Exercise: Write the entries in order, lowest recorded pIC50 first. Provide the labels, sequenced as the question asks.
Solution: 2, 3, 4, 1

a = CC[C@@H]1CN(c2cc(=O)n(C)c3cn(CC#N)nc23)[C@@H](CC)CN1C(=O)c1cc2ccccc2cn1 [Compound A372]
b = CC[C@H]1CN(C(C)c2ccc(F)cc2OC)[C@H](CC)CN1c1cc(=O)n(C)c2cn(CC#N)nc12 (single isomer, unassigned) [Compound A71a]
Exercise: Between a and b , which one shows the smaller pIC50 number? Answer by stating the label of the chosen item.
Solution: b

###

# subject of test: DGKζ (Homo sapiens (Human), UniProt Q13574)
# Sequence (Q13574 other isoform, or with tags, fused parts or gaps): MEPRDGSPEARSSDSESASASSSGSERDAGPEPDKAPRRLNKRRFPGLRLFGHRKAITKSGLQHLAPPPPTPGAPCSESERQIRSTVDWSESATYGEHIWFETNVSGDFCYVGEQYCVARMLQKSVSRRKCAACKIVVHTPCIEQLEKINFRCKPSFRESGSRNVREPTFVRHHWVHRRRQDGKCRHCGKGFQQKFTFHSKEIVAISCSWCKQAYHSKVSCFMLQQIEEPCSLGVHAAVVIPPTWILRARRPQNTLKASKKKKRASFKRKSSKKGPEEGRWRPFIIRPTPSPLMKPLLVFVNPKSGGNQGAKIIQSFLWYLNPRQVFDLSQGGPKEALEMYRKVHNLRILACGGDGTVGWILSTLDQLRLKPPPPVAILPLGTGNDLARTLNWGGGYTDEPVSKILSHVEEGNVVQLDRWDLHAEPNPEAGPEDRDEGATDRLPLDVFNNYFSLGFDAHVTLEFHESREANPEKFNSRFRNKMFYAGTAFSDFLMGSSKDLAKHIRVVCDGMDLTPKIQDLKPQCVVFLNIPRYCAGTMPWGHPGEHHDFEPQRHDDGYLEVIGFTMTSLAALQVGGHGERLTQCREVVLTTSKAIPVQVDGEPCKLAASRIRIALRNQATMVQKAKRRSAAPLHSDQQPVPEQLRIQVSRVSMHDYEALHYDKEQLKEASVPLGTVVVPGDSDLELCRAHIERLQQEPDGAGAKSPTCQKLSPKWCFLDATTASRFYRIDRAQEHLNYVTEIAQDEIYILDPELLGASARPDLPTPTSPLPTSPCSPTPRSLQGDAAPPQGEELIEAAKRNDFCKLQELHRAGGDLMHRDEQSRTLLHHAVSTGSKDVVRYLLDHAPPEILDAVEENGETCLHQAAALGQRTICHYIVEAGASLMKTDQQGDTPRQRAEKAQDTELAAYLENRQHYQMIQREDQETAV
# experimental details: Biochemical DGK IC50 assay, DGKζ ADP-Glo assay
# recorded conditions: 0.5 nM enzyme, 140 μM ATP, 80 μM DAG; read-out: DGKζ ADP-Glo assay IC50
observable: IC50 (µM)

These recorded examples may help you get a feel for the data.
                                   molecule  observable  unit_spec  endpoint_value
0  CC[C@@H]1CN(c2cc(=O)n(C)c3cn(CC#N)nc23)[C@@H](C)CN1C(C)c1ccc(F)cc1C(F)(F)F (single isomer, unassigned) [Compound A218b]        IC50         µM            3.96
1  CC[C@H]1CN(C(C)c2ccc3cc(C)ncc3c2)[C@H](CC)CN1c1cc(=O)n(C)c2cn(CC#N)nc12 (stereo partly drawn) [Compound A366]        IC50         µM           0.644
2  CC[C@H]1CN(C2CCc3ccccc32)[C@H](CC)CN1c1cc(=O)n(C)c2cn(CC#N)nc12 (single isomer, unassigned) [Compound A149a]        IC50         µM            4.16
3  CC[C@H]1CN(C(C)c2ccc(C(F)(F)F)nc2)[C@H](CC)CN1c1cc(=O)n(C)c2cn(CC#N)nc12 (single isomer, unassigned) [Compound A135a]        IC50         µM           0.097

a = CC[C@H]1CN(C(C)c2ccc(F)cc2C(F)(F)F)[C@H](CC)CN1c1cc(=O)n(C)c2cn(CC#N)nc12 (single isomer, unassigned) [Compound A196b]
b = CC[C@@H]1CN(c2cc(=O)n(C)c3cn(CC#N)nc23)[C@@H](C)CN1C(C)c1ccc2nccnc2c1 (single isomer, unassigned) [Compound A97b]
c = CC#CCn1cc2c(n1)c(N1C[C@@H](CC)N(C(C)c3cnc4ccccc4n3)C[C@@H]1C)cc(=O)n2C (single isomer, unassigned) [Compound A394b]
d = CC[C@H]1CN(C(C)c2nccn2CC)[C@H](CC)CN1c1cc(=O)n(C)c2cn(CC#N)nc12 (stereo partly drawn) [Compound A174]
Exercise: Ordering criterion: IC50; begin with the maximum. Lab note: final answer is the ordered label list.
Solution: d, b, c, a
(d: 57.9 µM, b: 1.61 µM, c: 0.125 µM, a: 0.038 µM)
